Target: human GLP-1 receptor (human, UniProt P43220 24-463)
Test: cell-based or functional assay
Below, each entry is listed alongside its reported cAMP EC50.
Just the number in nM, nothing appended.

IP172 (Fc fusion) HGEGTFTSDVSSYMERQAIDEFIAWLLAGAAAGGSGSTASSGSGSATGGGGAATHTCPPCPAPEF | 0.057
IP357 (Fc fusion) YSEGTFTSDFSKLLEEEAVRLFIEFLLAGGGGGGSGGGGSGGGGSGGGGSATHTCPPC | 0.27

Now look at this entry.
Q) # lookup: cAMP EC50 of IP421 (Fc fusion) HGEGTFTSDLSKQMEEECVRLFIEWLKNGGPSSGAPPPGCGSGGGGSGGGGSGGGGSGGGGSGGGGSGGGGSGGGGSACPPC
A) 3
